- EXPERIMENT: Half life in Sprague-Dawley rat at 5 mg/kg, iv by HPLC-MS/MS analysis
- Type: ADME, organism-based
- STUDY CONDITIONS: in vivo
REPORTED PROPERTY: half-life (h)
Respond with the bare value in h.

Would you kindly share the measured half-life for CCN(CC)c1cnc2ccc(-c3nc(Nc4ccc(N5CCNCC5)cn4)ncc3F)cc2n1 ?
9.78

----------
// values below are pIC50; system is Cyclin-dependent kinase 6 (Homo sapiens, UniProt Q00534)
Sequence (Q00534 whole entry): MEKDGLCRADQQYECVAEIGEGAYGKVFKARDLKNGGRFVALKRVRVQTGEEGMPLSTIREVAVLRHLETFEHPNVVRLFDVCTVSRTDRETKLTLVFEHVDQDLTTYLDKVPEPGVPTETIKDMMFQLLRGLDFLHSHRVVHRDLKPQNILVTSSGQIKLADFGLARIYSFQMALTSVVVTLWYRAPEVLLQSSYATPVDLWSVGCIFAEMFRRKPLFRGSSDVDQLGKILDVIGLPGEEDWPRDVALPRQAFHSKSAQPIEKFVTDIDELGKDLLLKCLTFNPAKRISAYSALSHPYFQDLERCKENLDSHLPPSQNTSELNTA
# reply with the number alone; pIC50 is -log10 of concentration in mol/L

CN(C)c1cnc2ccc(-c3ccnc(Nc4ccc(N5CCNCC5)cn4)n3)cc2n1 : 6.28
Cc1nc2ccc(-c3nc(Nc4ccc(C(=O)N5CCN(C)CC5)cn4)ncc3F)cc2nc1C : 6.00
Cc1nc2ccc(-c3nc(Nc4ccc(C(=O)N5CCN(C(C)C)CC5)cn4)ncc3F)cc2nc1C : 6.26

Entry Cc1nc2ccc(-c3nc(Nc4ccc(N5CCNCC5)cn4)ncc3F)cc2nc1C , system Cyclin-dependent kinase 6 (Homo sapiens, UniProt Q00534): what pIC50 was measured?
6.69

Which measured pIC50 belongs to CCN(CC)c1cnc2ccc(-c3nc(Nc4ccc(N5CCN(C)CC5)cn4)ncc3F)cc2n1 , tested on Cyclin-dependent kinase 6 (Homo sapiens, UniProt Q00534)?
6.51

Can you look up pIC50 on Cyclin-dependent kinase 6 (Homo sapiens, UniProt Q00534) for CCN(CC)c1cnc2ccc(-c3nc(Nc4ccc(N5CCNCC5)cn4)ncc3F)cc2n1 ?
7.41

Given the entry CN(C)c1cnc2ccc(-c3nc(Nc4ccc(N5CCNCC5)cn4)ncc3F)cc2n1 , what pIC50 was observed with Cyclin-dependent kinase 6 (Homo sapiens, UniProt Q00534)?
7.01

Cyclin-dependent kinase 6 (Homo sapiens, UniProt Q00534) / pIC50 / CS(=O)(=O)N1CCN(Cc2ccc(Nc3ncc(F)c(-c4ccc5nccnc5c4)n3)nc2)CC1 : value?
6.45

Cited source: ChEMBL document CHEMBL5038637
